condition.set: 298.15 K; 101.33 kPa; Liquid
test.readout: mass density (kg/m3)
Field format: number, assumed kg/m3, no unit text.

Consider the following illustrative entries.
>  <molecule>
Cc1ccccc1

>  <mass density, kg/m3>
862.35

$$$$
>  <molecule>
CCCCCCCCCCCC

>  <mass density, kg/m3>
745.41

$$$$
>  <molecule>
CO

>  <mass density, kg/m3>
786.62

$$$$
>  <molecule>
CC1=CC[C@H]2C[C@@H]1C2(C)C [(S)-2-pinene]

>  <mass density, kg/m3>
853.88

$$$$
>  <molecule>
C=C1CC[C@H]2C[C@@H]1C2(C)C [(1S,5S)-6,6-dimethyl-2-methylenebicyclo[3.1.1]heptane]

>  <mass density, kg/m3>
866.84

$$$$

QUERY: Endpoint output: mass density of C=C(C)[C@H]1CC=C(C)CC1 [(R)-1-methyl-4-(1-methylethenyl)cyclohexene] . Value?
RESULT: 837.31
